tested on: β-galactosidase in CMV-LacZ C2C12 myotubes; assay: CMV-LacZ secondary screen in C2C12 myotubes (β-Gal stabilizing assay); assay type: cell-based, mouse; conditions: 10 uM; C2C12 CMV-LacZ myotubes; fold relative to DMSO
# Lookup of reported CMV-LACZ in Myotubes, signal relative to DMSO keyed by entry
measured.attribute: CMV-LACZ in Myotubes, signal relative to DMSO

# compound, result.number
rows = [
    ("Cc1ccccc1OCC(=O)Nc1nnc(-c2ccco2)s1", 0.7867),
    ("O=[N+]([O-])c1ccc(N2CCN(c3ccccc3F)CC2)nc1", 0.9284),
    ("Cc1cccc(Sc2nc(-c3ccccc3)ccc2C#N)c1", 0.9324),
    ("CCOC(=O)C1(Cc2cccc(Cl)c2)CCCN(C(=O)CCSC)C1 (centres unmarked)", 0.9029),
    ("Cc1ccccc1C(=O)Nc1scc(-c2ccc(Br)cc2)c1C(=O)O", 0.8244),
    ("CC(C)N(CCO)C(=O)CCc1nnc(CCCc2ccccc2)o1", 0.8654),
    ("NC(=O)c1sc2nc3c(cc2c1N)CCC3", 1.0300),
    ("O=[N+]([O-])c1cccc(S(=O)(=O)N2CCN(S(=O)(=O)N3CCOCC3)CC2)c1", 1.166),
    ("N#CC1=C2SCN(c3ccccc3)CN2C(=O)CC1c1cccs1 (centres unmarked)", 1.0399),
    ("CC(C)(C)n1cnc2cc(NC(=O)c3ccco3)ccc21", 0.8931),
    ("O=C(CSc1nnc2c(n1)[nH]c1ccccc12)NCc1ccccc1F", 1.0077),
    ("CC(=O)Nc1ccc(NC(=O)C/C(C)=N/NC(=O)COc2cc(C)c(Br)cc2Br)cc1", 1.1674),
    ("O=S(=O)(NC(=NC1CCCCC1)c1ccccc1F)c1ccccc1", 0.8930),
    ("COc1ccc(S(=O)(=O)Nc2ccc(S(=O)(=O)Nc3nccs3)cc2)cc1", 1.023),
    ("Nc1ncnc(N2CCc3ccccc32)c1[N+](=O)[O-]", 1.0086),
    ("CC(Oc1ccccc1)C(=O)N1CCN(C(=O)C(C)Oc2ccccc2)CC1 (centres unmarked)", 0.9593),
    ("COc1cc(CNCc2ccc(C(=O)O)cc2)ccc1OCc1ccc(F)cc1.Cl", 0.8008),
    ("CC(C)(C)c1ccc(C(=O)OCC(=O)Nc2sc3c(c2C#N)CCC3)cc1", 0.8568),
    ("Cc1ccc(Cn2nnc3c(=O)[nH]c(C4CCCN(C(=O)c5ccco5)C4)nc32)cc1 (centres unmarked)", 1.0832),
    ("CCN(CC(=O)NCc1cccs1)C(=O)COc1ccc(C(N)=O)cc1", 0.8407),
    ("COc1ccc(S(=O)(=O)N(NC2=NS(=O)(=O)c3ccccc32)C(=O)C(C)C)cc1", 1.084),
    ("CC1(C)Cc2c(c(N3CCOCC3)nc3sc(C(=O)Nc4ccccc4)c(N)c23)CO1", 1.2173),
    ("CC(C)(CC(=O)O)CC(=O)N1CCCN(c2nccc(C(F)(F)F)n2)CC1", 0.9201),
    ("CC(NC(=O)c1ccc(C(C)(C)C)cc1)C(c1cccs1)N1CCOCC1 (centres unmarked)", 0.9727),
    ("COc1ccc(OC)c(NC(=O)CN2CCC(NC(=O)c3ccccc3C)CC2)c1", 1.1133),
    ("COc1ccc(N2CCN(CCC3Oc4cc([N+](=O)[O-])ccc4NC3=O)CC2)cc1 (centres unmarked)", 1.011),
    ("c1ccc(-c2cnc(-c3ccccc3)nc2)cc1", 0.8914),
    ("O=C(Nc1ccccc1Cl)C1CCCN1C(=O)OCc1ccccc1 (centres unmarked)", 1.0546),
    ("COC(=O)C(=O)C/C(=N/Nc1ncnc2ccccc12)c1ccc(Cl)cc1", 0.832),
    ("Cl.O=C(CN1CCOCC1)NCc1cc([N+](=O)[O-])ccc1O", 0.9979),
    ("COc1ccc(C(=O)Nc2ccc(Cl)cn2)cc1Cl", 0.9813),
    ("CCOc1ccc2ccccc2c1C1NC(=O)N(C)C(C)=C1C(=O)OCCOC (centres unmarked)", 0.9718),
    ("O=C(COc1cc2oc(=O)c3c(c2cc1Cl)CCCC3)NCC1CCC(C(=O)O)CC1 (centres unmarked)", 0.9842),
    ("COc1ccccc1C(=O)NCCOc1ccc(C(C)(C)C)cc1", 0.8788),
    ("Cc1ccccc1NC(=O)c1ccc2c(O)c(S(=O)(=O)c3ccccc3)c(=O)[nH]c2c1", 1.1482),
]

---

test system: α7 integrin (LacZ reporter in α7LacZ+/− myoblasts); assay: qHTS of the LOPAC library and MLSMR (online screen, α7LacZ+/− myoblasts); details: Mus musculus, Myoblast, 48 h, read-out: Activity at 1.530 uM [%] **
Hi all, reminder that labels come from activation at 1.53 µM, split as bucket A: < -10%; bucket B: ≥ -10% and < 10%; bucket C: ≥ 10%

# molecule, category.label
measured = [
    ("COc1ccccc1-c1coc2c3c(ccc2c1=O)OC1CCCCN1C3 (stereo not drawn)", "bucket B"),
    ("N#Cc1ccc(OCC(O)CS(=O)(=O)c2ccccc2)cc1 (stereo not drawn)", "bucket A"),
    ("COc1ccc(C(=O)CN2CCCCC2)cc1", "bucket C"),
    ("CC(C)N(CCO)C(=O)CCc1nnc(CCCc2ccccc2)o1", "bucket B"),
    ("CC(NC(=O)c1cn(C)c2ccc(S(=O)(=O)N3CCCC3)cc2c1=O)c1ccccc1 (stereo not drawn)", "bucket A"),
    ("CCC(CC)C(=O)Nc1c(C(=O)N2CCN(c3ccccc3)CC2)oc2ccccc12", "bucket C"),
    ("CCc1c(C2(O)CCCCC2)[nH]c2ncccc12", "bucket A"),
    ("CNC(=O)/C(=C\\c1cccc(Oc2ccccc2)c1)NC(=O)c1ccccc1", "bucket C"),
    ("COc1cc(=O)n(C)c2ccccc12", "bucket C"),
]

---

# Lookup of reported CMV-LACZ in Myoblasts (β-galactosidase activity relative to DMSO) keyed by entry
tested on: β-galactosidase in CMV-LacZ C2C12 myoblasts; assay: CMV-LacZ secondary screen in C2C12 myoblasts (β-Gal stabilizing assay); format: cell-based, mouse; conditions: 10 uM; CMV-LacZ C2C12 myoblasts
measured.attribute: CMV-LACZ in Myoblasts (β-galactosidase activity relative to DMSO)

# compound, result.number
records = [
    ("NS(=O)(=O)c1ccc(NC(=O)CN2CCc3ccccc32)cc1 [MLS000850522-01]", 0.8671),
    ("Cc1ccc2c(c1)/C(=C/c1ccco1)C(=O)N2 [MLS000682750-01]", 0.9934),
    ("CC(C)(C)c1ccc(C(=O)OCC(=O)Nc2sc3c(c2C#N)CCC3)cc1 [MLS000392555-01]", 0.9799),
    ("O=C(NCc1ccccc1)c1csc(-c2cccnc2)n1 [MLS000860966-01]", 0.8424),
    ("O=c1[nH]c2ccccc2nc1-c1c[nH]c2ccccc12 [MLS001181936-01]", 0.8296),
    ("Cc1cccc(Cn2cnc3c(nnn3Cc3ccc(Cl)cc3)c2=O)c1 [MLS000092785-01]", 0.7351),
    ("COc1ccc(C(=O)Nc2ccc(Cl)cn2)cc1Cl [MLS000089748-01]", 0.9905),
    ("CCCS(=O)(=O)c1nc(S(=O)(=O)c2ccc(C)cc2)c(N2CCCC2)s1 [MLS000113985-01]", 0.9187),
    ("O=C(N/N=C/c1c[nH]c2ccccc12)c1cc(Cl)ccc1O [MLS001196572-01]", 0.9456),
    ("O=c1c2cc(-c3ccccc3)sc2nc2n1N=C(c1ccccc1)CS2 [MLS000858981-01]", 0.9009),
    ("CCC(CC)C(=O)Nc1c(C(=O)N2CCN(c3ccccc3)CC2)oc2ccccc12 [MLS001116079-01]", 1.0228),
    ("CCCCN1CC(=O)N2Cc3[nH]c4ccccc4c3C[C@H]2C1=O [MLS001165424-01]", 1.0078),
    ("O=S(=O)(NC(=NC1CCCCC1)c1ccccc1F)c1ccccc1 [MLS000947910-01]", 1.0379),
    ("COc1cc([N+](=O)[O-])cc(/C=N/NC(=O)C(O)(c2ccccc2)c2ccccc2)c1O [MLS001183575-01]", 0.7762),
    ("CC(C)c1ccc(NC(=O)CN2C(=O)c3ccccc3S2(=O)=O)cc1 [MLS001229477-01]", 1.1311),
    ("O=C(Nc1ccccc1Cl)C1CCCN1C(=O)OCc1ccccc1 (stereo not drawn) [MLS001030621-01]", 1.1844),
    ("Cc1ccccc1-n1c(Cc2cccs2)n[nH]c1=S [MLS000568234-01]", 0.9894),
    ("CCOC(=O)C1=C(CC)Nc2ccccc2N=C1NC(=O)c1ccc(OC)c(S(=O)(=O)N2CCCCC2C)c1 (stereo not drawn) [MLS000776409-01]", 0.9052),
]
